# GI50 per record follows
Tested on: HT-29
test summary: Growth inhibition of human HT-29 cells overexpressing VDR gene after 72 hrs by MTS assay
Assay type: functional
condition info: HT-29, 72 h

For orientation, consider the following solved cases.
Quick check: GI50 of "CC(C)[C@@H](C)/C=C/[C@@H](C)[C@H]1CC[C@H]2[C@@H](O)CCC[C@]12C" ? 49.7 µM

Okay, and "C[C@H](CO)[C@H]1CC[C@H]2[C@@H](O)CCC[C@]12C" ? > 100 µM

Okay, and "CC(C)CCC[C@@H](C)[C@H]1CC[C@H]2[C@@H](O)CCC[C@]12C" ? 66.5 µM

More entries:
Quick check: GI50 of "CC(C)CCC[C@@H](C)[C@H]1CC[C@H]2C(=O)CCC[C@]12C" ? > 100 µM

Okay, and "CC(C)CCC[C@@H](C)[C@H]1CCC2=CCCC[C@@]21C" ? > 100 µM

Cited source: ChEMBL document CHEMBL2062438
